- target-of-assay: HvExoI W286Y mutant (Hordeum vulgare, UniProt Q9XEI3, W311Y)
- Sequence (Q9XEI3 26-630 W311Y): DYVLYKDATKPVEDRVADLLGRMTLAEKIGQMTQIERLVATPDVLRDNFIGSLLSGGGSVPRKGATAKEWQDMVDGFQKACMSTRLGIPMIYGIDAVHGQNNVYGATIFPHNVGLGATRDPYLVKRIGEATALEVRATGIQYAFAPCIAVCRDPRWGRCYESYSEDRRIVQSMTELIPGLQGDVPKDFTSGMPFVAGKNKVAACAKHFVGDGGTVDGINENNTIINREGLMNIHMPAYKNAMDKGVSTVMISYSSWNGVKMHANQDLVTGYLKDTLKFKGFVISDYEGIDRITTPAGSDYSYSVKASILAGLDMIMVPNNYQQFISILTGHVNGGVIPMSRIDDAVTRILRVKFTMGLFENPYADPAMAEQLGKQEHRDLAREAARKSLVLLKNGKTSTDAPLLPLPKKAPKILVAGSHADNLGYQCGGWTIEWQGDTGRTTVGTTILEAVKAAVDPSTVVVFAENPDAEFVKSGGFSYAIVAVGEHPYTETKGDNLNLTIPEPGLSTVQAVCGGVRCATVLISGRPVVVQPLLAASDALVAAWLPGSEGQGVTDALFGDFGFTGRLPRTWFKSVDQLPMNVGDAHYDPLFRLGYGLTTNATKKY
- assay-name: Relative rates of hydrolysis of poly-, oligosaccharides and aryl-glycosides
- Assay type: biochemical
- assay-conditions: substance is the substrate, nd = activity not detected
parameter: Activity (relative rate of hydrolysis) (μmole/min per mg protein)
Kindly provide the numeric value in μmole/min per mg protein only, without the unit symbol.

Would you please look over these solved cases?
>  <molecule>
OC[C@H]1O[C@@H](O[C@@H]2[C@@H](O)[C@H](O[C@@H]3[C@@H](O)[C@H](O[C@@H]4[C@@H](O)[C@H](O[C@@H]5[C@@H](O)[C@H](O[C@H]6[C@H](O)[C@@H](CO)OC(O)[C@@H]6O)O[C@H](CO)[C@H]5O)O[C@H](CO)[C@H]4O)O[C@H](CO)[C@H]3O)O[C@H](CO)[C@H]2O)[C@H](O)[C@@H](O)[C@@H]1O (stereo partly drawn)

>  <Activity (relative rate of hydrolysis) [μmole/min per mg protein]>
15.8

$$$$
>  <molecule>
OC[C@H]1O[C@@H](O[C@@H]2[C@@H](O)[C@H](O[C@@H]3[C@@H](O)[C@H](O[C@@H]4[C@@H](O)[C@H](O[C@@H]5[C@@H](O)[C@H](O)O[C@H](CO)[C@H]5O)O[C@H](CO)[C@H]4O)O[C@H](CO)[C@H]3O)O[C@H](CO)[C@H]2O)[C@H](O)[C@@H](O)[C@@H]1O

>  <Activity (relative rate of hydrolysis) [μmole/min per mg protein]>
14.8

$$$$
>  <molecule>
O=[N+]([O-])c1ccc(O[C@@H]2O[C@H](CO)[C@@H](O)[C@H](O)[C@H]2O)cc1 [4NP-Glc, 4-nitrophenyl β-D-glucopyranoside]

>  <Activity (relative rate of hydrolysis) [μmole/min per mg protein]>
19.6

$$$$
>  <molecule>
OC[C@H]1O[C@@H](O[C@H]2C(O)O[C@H](CO)[C@@H](O)[C@@H]2O)[C@H](O)[C@@H](O)[C@@H]1O (stereo partly drawn)

>  <Activity (relative rate of hydrolysis) [μmole/min per mg protein]>
12.5

$$$$
>  <molecule>
OC[C@H]1O[C@@H](O[C@H]2[C@H](O)[C@@H](O)[C@H](O[C@H]3[C@H](O)[C@@H](O)[C@H](O[C@H]4[C@H](O)[C@@H](O)C(O)O[C@@H]4CO)O[C@@H]3CO)O[C@@H]2CO)[C@H](O)[C@@H](O)[C@@H]1O (stereo partly drawn)

>  <Activity (relative rate of hydrolysis) [μmole/min per mg protein]>
6.3

$$$$

QUERY: Supply Activity (relative rate of hydrolysis) value. Item: OC[C@H]1O[C@@H](O[C@H]2[C@H](O)[C@@H](CO)OC(O)[C@@H]2O)[C@H](O)[C@@H](O)[C@@H]1O (stereo partly drawn)
RESULT: 13.9

QUERY: Identify measured Activity (relative rate of hydrolysis) corresponding to OC[C@H]1O[C@@H](O[C@H]2[C@H](O)[C@@H](O)[C@H](O[C@H]3[C@H](O)[C@@H](O)C(O)O[C@@H]3CO)O[C@@H]2CO)[C@H](O)[C@@H](O)[C@@H]1O (stereo partly drawn)
RESULT: 5.6

QUERY: Answer with the recorded Activity (relative rate of hydrolysis) for the molecule listed here: OC[C@H]1O[C@@H](O[C@@H]2[C@@H](O)[C@H](O[C@H]3[C@H](O)[C@@H](CO)OC(O)[C@@H]3O)O[C@H](CO)[C@H]2O)[C@H](O)[C@@H](O)[C@@H]1O (stereo partly drawn)
RESULT: 14.1

QUERY: Determine from records and report Activity (relative rate of hydrolysis) for OC[C@H]1O[C@@H](O[C@H]2[C@H](O)[C@@H](O)[C@H](O[C@H]3[C@H](O)[C@@H](O)[C@H](O[C@H]4[C@H](O)[C@@H](O)[C@H](O[C@H]5[C@H](O)[C@@H](O)[C@H](O[C@H]6[C@H](O)[C@@H](O)C(O)O[C@@H]6CO)O[C@@H]5CO)O[C@@H]4CO)O[C@@H]3CO)O[C@@H]2CO)[C@H](O)[C@@H](O)[C@@H]1O (stereo partly drawn)
RESULT: 7.0
